# assay.system: RARγ (Homo sapiens, UniProt P13631)
# Sequence (P13631 whole entry): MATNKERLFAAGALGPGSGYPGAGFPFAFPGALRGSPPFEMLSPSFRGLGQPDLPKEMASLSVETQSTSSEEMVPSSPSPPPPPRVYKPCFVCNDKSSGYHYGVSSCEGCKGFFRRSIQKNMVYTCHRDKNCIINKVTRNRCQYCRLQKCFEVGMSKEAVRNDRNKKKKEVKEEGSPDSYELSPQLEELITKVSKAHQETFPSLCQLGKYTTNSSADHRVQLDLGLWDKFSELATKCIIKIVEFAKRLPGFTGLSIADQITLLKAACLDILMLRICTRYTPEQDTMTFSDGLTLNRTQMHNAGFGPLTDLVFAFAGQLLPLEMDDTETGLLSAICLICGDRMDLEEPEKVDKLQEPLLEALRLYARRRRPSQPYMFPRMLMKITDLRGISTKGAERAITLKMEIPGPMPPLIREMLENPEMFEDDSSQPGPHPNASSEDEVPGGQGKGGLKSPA
# assay.notes: Binding, RARγ (ligand binding assay)
# experimental.conditions: Table III
recorded.metric: log10 IC50 (log10 of the value in nM)
// do not treat as linear: log10 of IC50, unit nM

Example results:
molecule: CCCCCC(=O)c1cc2c(cc1/C=C/c1ccc(C(=O)O)cc1)C(C)(C)CCC2(C)C [RAR Agonist 5]
log10 IC50: 2.89

molecule: CC(C)COc1ccc(-c2ccc3cc(C(=O)O)ccc3c2)cc1C(C)(C)C [RAR Agonist 2, reference compound]
log10 IC50: 2.48

molecule: O=C(O)c1ccc(NC(=O)c2cc(C(F)(F)F)cc(C(F)(F)F)c2)cc1 [RAR Agonist 1, reference compound]
log10 IC50: 4.00

molecule: CC1(C)CCOc2ccc(C(=O)/C=C/c3ccc(C(=O)O)cc3)cc21 [RAR Agonist 6]
log10 IC50: 3.38

Now consider the entry below.
Query: Supply measured log10 IC50 of CCCCCCc1cc2c(cc1/C=C/c1ccc(C(=O)O)cc1)C(C)(C)CCC2(C)C [RAR Agonist 3] in your reply.
Response: 2.32

====

# assay.system: RARβ (Homo sapiens, UniProt P10826)
# Sequence (P10826 whole entry): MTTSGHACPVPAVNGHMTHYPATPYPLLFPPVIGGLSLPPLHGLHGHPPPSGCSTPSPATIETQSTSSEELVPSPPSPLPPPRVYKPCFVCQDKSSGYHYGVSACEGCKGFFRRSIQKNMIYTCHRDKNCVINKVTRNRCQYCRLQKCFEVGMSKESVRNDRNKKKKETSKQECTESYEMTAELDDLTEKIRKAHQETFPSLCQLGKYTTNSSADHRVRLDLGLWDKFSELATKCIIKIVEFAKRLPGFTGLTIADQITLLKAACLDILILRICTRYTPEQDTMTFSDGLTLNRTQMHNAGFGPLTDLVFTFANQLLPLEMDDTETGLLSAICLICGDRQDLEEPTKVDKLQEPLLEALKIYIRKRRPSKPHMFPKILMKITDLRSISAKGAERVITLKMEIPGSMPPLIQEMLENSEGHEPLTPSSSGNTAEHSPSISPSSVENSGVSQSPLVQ
# assay.notes: Transactivation, RARβ
# Assay type: cell-based
# experimental.conditions: Table II
recorded.metric: EC50 (nM)
Numbers only, in nM.

For each of the compounds below, state EC50.
1. CCCCCCc1cc2c(cc1/C=C/c1ccc(C(=O)O)cc1)C(C)(C)CCC2(C)C
2. O=C(O)c1ccc(NC(=O)c2cc(C(F)(F)F)cc(C(F)(F)F)c2)cc1 [RAR Agonist 1, reference compound]
3. CC(C)COc1ccc(-c2ccc3cc(C(=O)O)ccc3c2)cc1C(C)(C)C [RAR Agonist 2, reference compound]

Response:
[88, 10000, 39]

====

# assay.system: UniProt P10826
# assay.notes: Binding, RARβ (ligand binding assay)
# experimental.conditions: Table II
# Excerpt: The RARγ agonist selectivity of a compound can be determined by routine ligand binding assays known to one of skill in the art such as described in C. Apfel et al., Proc. Nat.
recorded.metric: pIC50
Answers are plain numbers, as −log10 of the molar value.

compound: O=C(O)c1ccc(NC(=O)c2cc(C(F)(F)F)cc(C(F)(F)F)c2)cc1 [RAR Agonist 1, reference compound]
pIC50: 5.00

compound: CC(C)COc1ccc(-c2ccc3cc(C(=O)O)ccc3c2)cc1C(C)(C)C [RAR Agonist 2, reference compound]
pIC50: 7.55

Now for a further compound.
Query: Enter pIC50 (test system UniProt P10826) for CCCCCCc1cc2c(cc1/C=C/c1ccc(C(=O)O)cc1)C(C)(C)CCC2(C)C
Response: 5.52

====

# assay.system: RARα (Homo sapiens)
# Sequence (P10276 whole entry): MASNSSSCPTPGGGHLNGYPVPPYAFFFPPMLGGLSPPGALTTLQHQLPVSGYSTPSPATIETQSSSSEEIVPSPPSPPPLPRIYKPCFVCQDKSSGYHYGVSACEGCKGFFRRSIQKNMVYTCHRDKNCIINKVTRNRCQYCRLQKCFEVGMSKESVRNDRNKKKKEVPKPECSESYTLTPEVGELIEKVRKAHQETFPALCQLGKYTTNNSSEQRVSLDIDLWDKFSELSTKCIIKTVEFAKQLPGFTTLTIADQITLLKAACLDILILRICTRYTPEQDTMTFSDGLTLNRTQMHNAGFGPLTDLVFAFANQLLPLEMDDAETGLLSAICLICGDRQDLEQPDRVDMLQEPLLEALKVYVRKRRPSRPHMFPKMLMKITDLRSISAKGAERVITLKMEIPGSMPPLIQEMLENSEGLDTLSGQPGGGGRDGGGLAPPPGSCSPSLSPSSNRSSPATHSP
# assay.notes: Transactivation, RARα
# Assay type: cell-based
# experimental.conditions: Table II
recorded.metric: EC50 (nM)
Answers are plain numbers, in nM.

compound: CC(C)COc1ccc(-c2ccc3cc(C(=O)O)ccc3c2)cc1C(C)(C)C [RAR Agonist 2, reference compound]
endpoint.unit: nM
EC50: 2000
--
compound: O=C(O)c1ccc(NC(=O)c2cc(C(F)(F)F)cc(C(F)(F)F)c2)cc1 [RAR Agonist 1, reference compound]
endpoint.unit: nM
EC50: 16.5

Next:
Query: Please give measured EC50 of the following entry: CCCCCCc1cc2c(cc1/C=C/c1ccc(C(=O)O)cc1)C(C)(C)CCC2(C)C
Response: 1000
